- methodDescription: in vitro
- Assay type: in vitro ADME, human
- testSettings: human, Caco-2
readout: Papp A→B at 2 h (×10⁻⁶ cm/s)
Kindly provide the numeric value in ×10⁻⁶ cm/s only, without the unit symbol.

Query: I am curious: what Papp A→B at 2 h value has been reported for CNC(=C[N+](=O)[O-])NCCSCc1ccc(CN(C)C)o1 [ranitidine] ?
Response: 0.98

Query: May I ask what Papp A→B at 2 h has been recorded for COCCc1ccc(OCC(O)CNC(C)C)cc1 (stereo not shown) [metoprolol] ?
Response: 36.5

Query: Would you mind telling me what Papp A→B at 2 h value was observed for CC(C)NCC(O)COc1cccc2ccccc12 (stereo not shown) [propranolol] ?
Response: 32.3

Query: Could you share which Papp A→B at 2 h value was measured for O=C(O)Cc1ccccc1Nc1c(Cl)cccc1Cl [diclofenac] ?
Response: 36.2
